- study system: human GLP1-R (Homo sapiens)
- Sequence (P43220 24-463): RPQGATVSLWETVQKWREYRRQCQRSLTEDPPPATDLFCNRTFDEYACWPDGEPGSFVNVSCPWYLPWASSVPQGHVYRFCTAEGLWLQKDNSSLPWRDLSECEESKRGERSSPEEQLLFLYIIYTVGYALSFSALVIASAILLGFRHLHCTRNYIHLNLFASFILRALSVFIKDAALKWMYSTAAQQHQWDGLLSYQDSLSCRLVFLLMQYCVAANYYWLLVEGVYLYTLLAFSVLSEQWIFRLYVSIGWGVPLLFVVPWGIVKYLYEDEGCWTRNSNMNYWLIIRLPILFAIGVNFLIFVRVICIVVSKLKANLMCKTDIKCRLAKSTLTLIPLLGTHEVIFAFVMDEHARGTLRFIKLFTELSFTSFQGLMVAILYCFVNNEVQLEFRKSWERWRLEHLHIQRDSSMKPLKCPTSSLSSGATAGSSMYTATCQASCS
- test description: GLP1-R internalization assay in HEK293 cells
- Assay type: cell-based
- measurement conditions: normalized to maximum concentration of GLP-1 (100%)
Starred links: 1 amine or outer side, 2 acyl side, 3 side chain; linkers in the order of their positions; H or OH if unused. Non-standard residues stand in square brackets, D forms with d. Groups on a side chain read outwards from the residue. No end group written: not given here. *: point of attachment. C20 diacid = O=C(O)CCCCCCCCCCCCCCCCCCC(=O)*; C18 diacid = O=C(O)CCCCCCCCCCCCCCCCC(=O)*; γGlu = O=C(O)[C@H](CCC(=O)[*:2])N[*:1]; αMe4Pal = C[C@](N)(Cc1ccncc1)C(=O)O; αMeL = CC(C)C[C@](C)(N)C(=O)O; Orn = NCCC[C@H](N)C(=O)O; Dab = NCC[C@H](N)C(=O)O; AEEA = NCCOCCOCC(=O)O; Aib = CC(C)(N)C(=O)O
Decide using Internalization % TOP alone. Strictly below 50%: Met. Equal to or above 50%: Not met.

Worked examples follow.
[
  {
    "substance": "Y[Aib]QGTFTSDFS[Dab][αMeL]LDKK([AEEA-γGlu-C18 diacid])AQ[Aib]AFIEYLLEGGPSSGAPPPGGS-NH2 [Example 67]",
    "discrete label": "Met"
  },
  {
    "substance": "H-Y[Aib]QGTFTSDFSK[αMeL]LDKK([AEEA-γGlu-C20 diacid])AQ[Aib]AFIEYLLAGGPSSGAPPPGGS-NH2 [Example 16]",
    "discrete label": "Not met"
  },
  {
    "substance": "H-Y[Aib]QGTFTSDFSR[αMeL]LDKK([AEEA-γGlu-C18 diacid])AQ[αMe4Pal]AFIEYLIE[Aib]GESSGAPPPSGE-NH2 [Example 231]",
    "discrete label": "Met"
  }
]

Is Internalization % TOP of H-Y[Aib]QGTFTSDFS[Orn][αMeL]LDKK([AEEA-γGlu-C18 diacid])AQ[Aib]AFIEYLLAGGPSSGAPPPSGD-NH2 [Example 85] strictly below 50%?
Met

Input H-Y[Aib]QGTFTSDFS[Orn][αMeL]LDKK([AEEA-AEEA-γGlu-C18 diacid])AQ[Aib]AFIEYLLE[Aib]GPSSGAPPPSGS-NH2 [Example 75] ; condition: Internalization % TOP strictly below 50%. Does it hold?
Not met

====

- study system: hGLP-1R (Homo sapiens, UniProt P43220)
- Sequence (P43220 24-463): as the sequence (P43220 24-463) above
- test description: Functional cAMP activation in the presence of 0.1% casein (no HSA);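 further: intracellular cAMP rise after 30 min at 37 °C read by HTRF, normalized between buffer only (0%) and maximal control ligand (100%), four-parameter variable-slope fit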
- Format: cell-based
- measurement conditions: read-out: Relative cAMP EC50, hGLP-1R
Starred links: 1 amine or outer side, 2 acyl side, 3 side chain; linkers in the order of their positions; H or OH if unused. Non-standard residues stand in square brackets, D forms with d. Groups on a side chain read outwards from the residue. *: point of attachment. C18 diacid = O=C(O)CCCCCCCCCCCCCCCCC(=O)*; αMePhe(2-F) = C[C@](N)(Cc1ccccc1F)C(=O)O; γGlu = O=C(O)[C@H](CCC(=O)[*:2])N[*:1]; αMeY = C[C@](N)(Cc1ccc(O)cc1)C(=O)O; 4Pal = N[C@@H](Cc1ccncc1)C(=O)O; αMeL = CC(C)C[C@](C)(N)C(=O)O; αMeS = C[C@](N)(CO)C(=O)O; Orn = NCCC[C@H](N)C(=O)O; AEEA = NCCOCCOCC(=O)O; Aib = CC(C)(N)C(=O)O
pEC50 listing for selected substances.
Conceptually, pEC50 converts a concentration in mol/L into minus its log10.

[
  {
    "substance": "H-Y[Aib]QGT[αMePhe(2-F)]TSD[4Pal]SI[αMeL]LDKK([γGlu-γGlu-C18 diacid])AQ[Aib]AFIEYLEEGGPSSGAPPPSGEGE-NH2 [Example 623]",
    "pEC50": 9.04
  },
  {
    "substance": "H-Y[Aib]QGT[αMePhe(2-F)]TSD[4Pal][αMeS]I[αMeL]LD[Orn]K([AEEA-AEEA-γGlu-C18 diacid])AQ[Aib][Orn]FI[dE][αMeY]LIEGGPSSGEPPPSEG-NH2 [Example 490]",
    "pEC50": 9.74
  }
]

Please examine the following record next.
Request - read-out pEC50 | tested on hGLP-1R (Homo sapiens, UniProt P43220) | substance H-Y[Aib]QGT[αMePhe(2-F)]TSD[4Pal][αMeS]I[αMeL]LD[Orn]K([AEEA-γGlu-C18 diacid])AA[Aib]EFI[dE][αMeY]LLEGGPSSGAPPPSGS-NH2 [Example 672]
9.41

Data origin, for the record: patent US20240270821A1
